target-or-test-system: NPSR1 (Homo sapiens)
Construct: purchased Promega (in-house HiBiT-GPCR construct library, NanoBRET)
Sequence (Q6W5P4 whole entry): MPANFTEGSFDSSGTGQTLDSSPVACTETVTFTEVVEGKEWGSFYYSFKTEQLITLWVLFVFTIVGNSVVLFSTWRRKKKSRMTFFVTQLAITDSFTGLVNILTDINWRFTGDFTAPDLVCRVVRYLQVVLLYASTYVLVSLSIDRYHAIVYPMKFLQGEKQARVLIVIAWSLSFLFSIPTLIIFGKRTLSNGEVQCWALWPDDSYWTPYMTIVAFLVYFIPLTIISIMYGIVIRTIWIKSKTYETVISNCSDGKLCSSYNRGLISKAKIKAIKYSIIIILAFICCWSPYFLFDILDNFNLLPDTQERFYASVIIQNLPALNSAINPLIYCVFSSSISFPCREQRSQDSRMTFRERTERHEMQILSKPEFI
protocol-summary: NanoBRET screen HiBiT-NPSR1 in HEK293
Format: binding
experimental-parameters: NPSR1; tracer 1μM
This section presents molecules with their documented NanoBRET Fold Response values.
Give the figure only, with no unit attached.

Here are 3 molecules together with their reported answers.
>>> test_value("O=C(CCc1ccc2n1[B-](F)(F)[N+]1=C(c3ccc[nH]3)C=CC1=C2)NCc1ccc(C(=O)NCCOCCC(=O)N[C@@H]2CC[C@@]3(O)[C@H]4Cc5ccc(O)c6c5[C@@]3(CCN4CC3CC3)[C@H]2O6)cc1 [Naltrexone-3-NB590]")
0.92
>>> test_value("COc1ccccc1N1CCN(CCCCN2C(=O)c3ccc(CNC(=O)CCOCCNC(=O)c4ccc(CNC(=O)CCc5ccc6n5[B-](F)(F)[N+]5=C(c7ccc[nH]7)C=CC5=C6)cc4)cc3C2=O)CC1")
1.17
>>> test_value("O=C(CCc1ccc2n1[B-](F)(F)[N+]1=C(c3ccc[nH]3)C=CC1=C2)NCCOCCOCCNC(=O)OCCOCCN1CCN(C2=Nc3ccccc3Sc3ccccc32)CC1")
0.90

Problem: So what's the measured NanoBRET Fold Response for this one? CC(C)N(CC[C@H](c1ccccc1)c1cc(CCNC(=O)CCOCCOCCOCCOCCNC(=O)CCc2ccc3n2[B-](F)(F)[N+]2=C(c4ccc[nH]4)C=CC2=C3)ccc1O)C(C)C
Solution: 1.34

Problem: Using the record for CC(C)N(CC[C@H](c1ccccc1)c1cc(CCNC(=O)c2ccc(CNC(=O)CCc3ccc4n3[B-](F)(F)[N+]3=C(c5ccc[nH]5)C=CC3=C4)cc2)ccc1O)C(C)C , report its NanoBRET Fold Response.
Solution: 0.99

* * *

target-or-test-system: FZD9 (Homo sapiens, UniProt O00144)
Construct: purchased Promega (in-house HiBiT-GPCR construct library, NanoBRET)
Sequence (O00144 23-591): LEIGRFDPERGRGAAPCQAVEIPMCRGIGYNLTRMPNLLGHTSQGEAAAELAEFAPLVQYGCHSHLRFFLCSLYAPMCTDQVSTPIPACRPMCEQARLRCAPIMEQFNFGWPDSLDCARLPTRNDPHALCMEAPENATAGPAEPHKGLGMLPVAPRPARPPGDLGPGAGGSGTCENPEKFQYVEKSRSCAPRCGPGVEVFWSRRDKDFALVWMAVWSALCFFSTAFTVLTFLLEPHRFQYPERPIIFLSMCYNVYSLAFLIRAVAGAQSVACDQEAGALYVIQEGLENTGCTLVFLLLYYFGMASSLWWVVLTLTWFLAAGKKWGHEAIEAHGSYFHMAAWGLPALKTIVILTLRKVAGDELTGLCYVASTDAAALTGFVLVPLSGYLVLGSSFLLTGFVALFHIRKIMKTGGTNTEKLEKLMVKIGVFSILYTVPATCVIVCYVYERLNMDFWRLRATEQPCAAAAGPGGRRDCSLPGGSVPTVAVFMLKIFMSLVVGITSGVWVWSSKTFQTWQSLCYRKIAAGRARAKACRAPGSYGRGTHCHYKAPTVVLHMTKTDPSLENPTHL
protocol-summary: NanoBRET screen HiBiT-FZD9 in HEK293
Type: binding
experimental-parameters: FZD9; tracer 0.1μM
Decision: NanoBRET Fold Response compared against 1; not below it gives true, below it gives false.

>>> qualitative_label("O=C(CCc1ccc2n1[B-](F)(F)[N+]1=C(c3ccc[nH]3)C=CC1=C2)NCCOCCOCCNC(=O)OCCOCCN1CCN(C2=Nc3ccccc3Sc3ccccc32)CC1")
"false"

Problem: Check this compound for NanoBRET Fold Response at or above 1: CC(C)N(CC[C@H](c1ccccc1)c1cc(CCNC(=O)CCOCCOCCOCCOCCNC(=O)CCc2ccc3n2[B-](F)(F)[N+]2=C(c4ccc[nH]4)C=CC2=C3)ccc1O)C(C)C
Solution: false

Problem: Can N#CN=C(NCCCOc1cccc(CN2CCCCC2)c1)NCCNC(=O)CCOCCOCCOCCOCCNC(=O)CCc1ccc2n1[B-](F)(F)[N+]1=C(c3ccc[nH]3)C=CC1=C2 be said to have NanoBRET Fold Response at or above 1?
Solution: true

Problem: Can CC(C)N(CC[C@H](c1ccccc1)c1cc(CCNC(=O)c2ccc(CNC(=O)CCc3ccc4n3[B-](F)(F)[N+]3=C(c5ccc[nH]5)C=CC3=C4)cc2)ccc1O)C(C)C be said to have NanoBRET Fold Response at or above 1?
Solution: false

Problem: I'd appreciate it if you could say whether O=C(CCc1ccc2n1[B-](F)(F)[N+]1=C(c3ccc[nH]3)C=CC1=C2)NCc1ccc(C(=O)NCCOCCC(=O)N[C@@H]2CC[C@@]3(O)[C@H]4Cc5ccc(O)c6c5[C@@]3(CCN4CC3CC3)[C@H]2O6)cc1 [Naltrexone-3-NB590] has NanoBRET Fold Response at least equal to 1.
Solution: true

* * *

target-or-test-system: OPRM1 (Homo sapiens, UniProt P35372)
Construct: purchased Promega (in-house HiBiT-GPCR construct library, NanoBRET)
Sequence (P35372 whole entry): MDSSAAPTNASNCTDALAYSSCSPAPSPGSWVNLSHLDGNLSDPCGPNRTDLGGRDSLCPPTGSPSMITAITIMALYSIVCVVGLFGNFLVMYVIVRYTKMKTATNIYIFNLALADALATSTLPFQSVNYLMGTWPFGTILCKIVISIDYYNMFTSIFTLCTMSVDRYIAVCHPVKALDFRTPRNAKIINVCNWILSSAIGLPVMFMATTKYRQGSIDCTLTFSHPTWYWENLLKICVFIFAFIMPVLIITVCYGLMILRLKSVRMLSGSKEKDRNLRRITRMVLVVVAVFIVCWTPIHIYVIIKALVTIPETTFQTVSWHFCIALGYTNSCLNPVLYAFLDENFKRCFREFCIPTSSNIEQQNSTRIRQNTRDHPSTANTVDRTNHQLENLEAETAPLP
protocol-summary: NanoBRET screen HiBiT-OPRM1 in HEK293
Assay type: binding
experimental-parameters: OPRM1; tracer 1μM
measurement-type: NanoBRET Fold Response

Below are worked cases with known answers.
>>> test_value("CC(C)N(CC[C@H](c1ccccc1)c1cc(CCNC(=O)c2ccc(CNC(=O)CCc3ccc4n3[B-](F)(F)[N+]3=C(c5ccc[nH]5)C=CC3=C4)cc2)ccc1O)C(C)C [Tolterodine-BZ-NB590]")
0.93
>>> test_value("Cc1cc2c(s1)Nc1ccccc1N=C2N1CCN(CCCNC(=O)CCOCCOCCOCCOCCNC(=O)CCc2ccc3n2[B-](F)(F)[N+]2=C(c4ccc[nH]4)C=CC2=C3)CC1 [Olanzapine-a-2-NB590]")
1.08
>>> test_value("O=C(CCc1ccc2n1[B-](F)(F)[N+]1=C(c3ccc[nH]3)C=CC1=C2)NCc1ccc(C(=O)NCCOCCC(=O)N[C@@H]2CC[C@@]3(O)[C@H]4Cc5ccc(O)c6c5[C@@]3(CCN4CC3CC3)[C@H]2O6)cc1 [Naltrexone-3-NB590]")
1.31
>>> test_value("CC(C)N(CC[C@H](c1ccccc1)c1cc(CCNC(=O)CCOCCOCCOCCOCCNC(=O)CCc2ccc3n2[B-](F)(F)[N+]2=C(c4ccc[nH]4)C=CC2=C3)ccc1O)C(C)C [Tolterodine-2-NB590]")
1.10
>>> test_value("COc1ccccc1N1CCN(CCCCN2C(=O)c3ccc(CNC(=O)CCOCCOCCOCCOCCNC(=O)CCc4ccc5n4[B-](F)(F)[N+]4=C(c6ccc[nH]6)C=CC4=C5)cc3C2=O)CC1 [NAN-190-2-NB590]")
1.10
>>> test_value("N#CN=C(NCCCOc1cccc(CN2CCCCC2)c1)NCCNC(=O)CCOCCOCCOCCOCCNC(=O)CCc1ccc2n1[B-](F)(F)[N+]1=C(c3ccc[nH]3)C=CC1=C2 [Aminopotentidine-2-NB590]")
1.01
>>> test_value("Cc1nc2n(c(=O)c1CCN1CCC(c3noc4cc(F)ccc34)CC1)CCCC2OC(=O)NCCOCCOCCOCCOCCNC(=O)CCc1ccc2n1[B-](F)(F)[N+]1=C(c3ccc[nH]3)C=CC1=C2 (centres unmarked) [Risperidone-2-NB590]")
0.96
>>> test_value("O=C(CCOCCOCCOCCOCCNC(=O)CCc1ccc2n1[B-](F)(F)[N+]1=C(c3ccc[nH]3)C=CC1=C2)NCCCN1CCN(C2=Nc3ccccc3Oc3ccc(Cl)cc32)CC1 [Loxapine-a-2-NB590]")
1.06

Problem: What measured NanoBRET Fold Response goes with CCCn1c(=O)c2[nH]c(-c3ccc(OCC(=O)NCCNC(=O)CCOCCNC(=O)c4ccc(CNC(=O)CCc5ccc6n5[B-](F)(F)[N+]5=C(c7ccc[nH]7)C=CC5=C6)cc4)cc3)nc2n(CCC)c1=O [XAC-3-NB590] ?
Solution: 1.02

Problem: Which value of NanoBRET Fold Response has been reported for COc1ccccc1N1CCN(CCCCN2C(=O)c3ccc(CNC(=O)CCOCCNC(=O)c4ccc(CNC(=O)CCc5ccc6n5[B-](F)(F)[N+]5=C(c7ccc[nH]7)C=CC5=C6)cc4)cc3C2=O)CC1 [NAN-190-3-NB590] in the records?
Solution: 0.91

Problem: For O=C(CCc1ccc2n1[B-](F)(F)[N+]1=C(c3ccc[nH]3)C=CC1=C2)NCCOCCOCCNC(=O)OCCOCCN1CCN(C2=Nc3ccccc3Sc3ccccc32)CC1 [Quetiapine-a-2-NB590] , what is its reported NanoBRET Fold Response?
Solution: 0.89

* * *

Parameter: NanoBRET Fold Response. Scope: all listed entries.
target-or-test-system: ADORA2B (Homo sapiens, UniProt P29275)
Construct: purchased Promega (in-house HiBiT-GPCR construct library, NanoBRET)
Sequence (P29275 1-332): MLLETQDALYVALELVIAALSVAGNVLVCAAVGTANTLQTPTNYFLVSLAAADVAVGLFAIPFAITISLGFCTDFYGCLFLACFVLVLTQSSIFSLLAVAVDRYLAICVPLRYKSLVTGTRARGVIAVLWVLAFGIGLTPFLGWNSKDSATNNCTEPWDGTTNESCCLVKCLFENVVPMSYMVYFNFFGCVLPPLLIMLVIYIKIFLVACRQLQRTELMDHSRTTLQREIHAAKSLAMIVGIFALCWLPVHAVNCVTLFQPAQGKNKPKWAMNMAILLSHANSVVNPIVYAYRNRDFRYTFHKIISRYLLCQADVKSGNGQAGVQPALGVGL
protocol-summary: NanoBRET screen HiBiT-ADORA2B in HEK293
Format: binding
experimental-parameters: ADORA2B; tracer 1μM
Experimental: Each tracer candidate was screened across the entire library of HiBiT-GPCR constructs using NanoBRET as the detection modality. As depicted in Figure 4A, the specificity of interactions was evaluated through decrease in BRET due to competitive displacement of a bound tracer by excess parental compound. Each tracer was analyzed for binding to each HiBiT-GPCR fusion in the absence and in the presence of competing parental compound. […]

Before answering, review these 2 worked examples.
>>> test_value("CCCn1c(=O)c2[nH]c(-c3ccc(OCC(=O)NCCNC(=O)CCOCCNC(=O)c4ccc(CNC(=O)CCc5ccc6n5[B-](F)(F)[N+]5=C(c7ccc[nH]7)C=CC5=C6)cc4)cc3)nc2n(CCC)c1=O [XAC-3-NB590]")
3.98
>>> test_value("O=C(CCOCCOCCOCCOCCNC(=O)CCc1ccc2n1[B-](F)(F)[N+]1=C(c3ccc[nH]3)C=CC1=C2)NCCCN1CCN(C2=Nc3ccccc3Oc3ccc(Cl)cc32)CC1 [Loxapine-a-2-NB590]")
0.62

Problem: Quick one: NanoBRET Fold Response for CC(C)N(CC[C@H](c1ccccc1)c1cc(CCNC(=O)CCOCCOCCOCCOCCNC(=O)CCc2ccc3n2[B-](F)(F)[N+]2=C(c4ccc[nH]4)C=CC2=C3)ccc1O)C(C)C [Tolterodine-2-NB590] ?
Solution: 0.97

Problem: Would you kindly share the measured NanoBRET Fold Response for CC(C)N(CC[C@H](c1ccccc1)c1cc(CCNC(=O)c2ccc(CNC(=O)CCc3ccc4n3[B-](F)(F)[N+]3=C(c5ccc[nH]5)C=CC3=C4)cc2)ccc1O)C(C)C [Tolterodine-BZ-NB590] ?
Solution: 0.73

Problem: Tell me the measured NanoBRET Fold Response of O=C(CCc1ccc2n1[B-](F)(F)[N+]1=C(c3ccc[nH]3)C=CC1=C2)NCc1ccc(C(=O)NCCOCCC(=O)N[C@@H]2CC[C@@]3(O)[C@H]4Cc5ccc(O)c6c5[C@@]3(CCN4CC3CC3)[C@H]2O6)cc1 [Naltrexone-3-NB590] , please.
Solution: 0.77

Problem: Value lookup for NanoBRET Fold Response; key = O=C(CCc1ccc2n1[B-](F)(F)[N+]1=C(c3ccc[nH]3)C=CC1=C2)NCCOCCOCCNC(=O)OCCOCCN1CCN(C2=Nc3ccccc3Sc3ccccc32)CC1 [Quetiapine-a-2-NB590]
Solution: 1.02
